Reported IC50 values for the following compounds.
# target: ICDH1 R132H (Homo sapiens (Human), UniProt O75874, R132H)
# Sequence (O75874 whole entry R132H): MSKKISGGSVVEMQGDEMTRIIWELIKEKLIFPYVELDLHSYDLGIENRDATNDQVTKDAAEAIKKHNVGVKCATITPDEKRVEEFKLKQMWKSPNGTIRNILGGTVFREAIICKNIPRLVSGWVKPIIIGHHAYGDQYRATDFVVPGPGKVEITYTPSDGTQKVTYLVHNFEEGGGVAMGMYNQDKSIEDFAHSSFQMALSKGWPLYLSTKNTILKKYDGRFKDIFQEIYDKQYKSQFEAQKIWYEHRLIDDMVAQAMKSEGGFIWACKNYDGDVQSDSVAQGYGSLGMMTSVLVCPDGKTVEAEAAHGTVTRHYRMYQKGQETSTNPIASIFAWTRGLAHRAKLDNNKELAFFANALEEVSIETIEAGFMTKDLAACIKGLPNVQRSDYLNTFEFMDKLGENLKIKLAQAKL
# protocol_summary: IDH1 R132H inhibition assay (NADPH/aKG, resazurin to resorufin fluorescence)
# Type: biochemical
# details: read-out: ICDH IC50 (uM) @ 4 uM (10x Km) NADPH; IDH1 R132H; 4 uM (10x Km) NADPH
measured_endpoint: IC50 (µM)

> print(dat)
                                   compound                                    target  reported.value
1  O=C1NC(=S)S/C1=C/c1cccc(OCc2ccc([N+](=O)[O-])cc2)c1  ICDH1 R132H (Homo sapiens (Human), UniProt O75874, R132H)            23.8
2  Cc1cc(C(=O)O)ccc1-c1ccc(/C=C2/NC(=O)N(Cc3ccc(Br)cc3)C2=O)o1  ICDH1 R132H (Homo sapiens (Human), UniProt O75874, R132H)              15
3  Cc1ccc(C2=NN(c3ccccc3)C(c3cn(CCC(=O)O)nc3-c3ccccc3)C2)cc1 (centres unmarked)  ICDH1 R132H (Homo sapiens (Human), UniProt O75874, R132H)            12.3
4  Cc1c(/C=C2\Sc3ccccc3C2=O)c(O)n2c(nc3ccccc32)c1C#N  ICDH1 R132H (Homo sapiens (Human), UniProt O75874, R132H)            5.74
5  O=C1NC(=S)S/C1=C\c1cccc(OC(=O)c2cccc(F)c2)c1  ICDH1 R132H (Homo sapiens (Human), UniProt O75874, R132H)            12.8
